inhibition zone (IZ) by entry:
# Tested on: Bacillus subtilis
# assay.summary: Antimicrobial activity against Bacillus subtilis after 24 hrs by disc diffusion method; note: test concentration or dose not given here
# Type: functional
Please give a number only; it is taken to be in mm.

In the examples that follow, each entry is paired with its recorded inhibition zone (IZ).
molecule | unit.descriptor | observed.value
CC1=NC(=S)N(n2c(CCl)nc3ccccc3c2=O)C(=O)C1/N=N/c1ccc(C)cc1O (stereo unspecified) | mm | 33
CC1=NC(=S)N(n2c(CCl)nc3ccccc3c2=O)C(=O)C1/N=N/c1ccc(O)c([N+](=O)[O-])c1 (stereo unspecified) | mm | 20
CC1=NC(=S)N(n2c(CCl)nc3ccccc3c2=O)C(=O)C1/N=N/c1ccc(O)c(O)c1 (stereo unspecified) | mm | 27
CC1=NC(=S)N(n2c(CCl)nc3ccccc3c2=O)C(=O)C1/N=N/c1ccc(O)cc1 (stereo unspecified) | mm | 18.5
CC1=NC(=S)N(n2c(CCl)nc3ccccc3c2=O)C(=O)C1/N=N/c1ccc(Cl)cc1O (stereo unspecified) | mm | 29

--- query ---
Give a short answer stating reported inhibition zone (IZ) for CC1=NC(=S)N(n2c(CCl)nc3ccccc3c2=O)C(=O)C1/N=N/c1ccc(O)cc1O (stereo unspecified) .
24.5
